From: paper PMC10770970

- Tested on: HT-29 (Human colorectal adenocarcinoma) cells
- ASSAY COMMENT: MTT reduction cytotoxicity assay, HT-29
- Format: cell-based
- TEST PARAMETERS: 72 h, ± S.E.M., max tested 100 µM
Entries and their pIC50
Scale: negative log10 of molar concentration, which is what pIC50 denotes.

{"COMPOUND": "O=C(NNCc1cn(Cc2ccc(Br)cc2)nn1)c1cn2ccccc2n1 [Compound 11d]", "pIC50": 4.08}

Consider now this further compound.
What value of pIC50 has been reported for the following compound? N.N.[Cl][Pt][Cl] [Cisplatin, reference compound] 4.65

###

PROPERTY LABEL: melting point

Consider the worked cases shown below.
{"COMPOUND": "C#CCNNC(=O)c1cn2ccccc2n1", "melting point": "142 to 144 °C"}
{"COMPOUND": "O=C(NNCc1cn(Cc2ccc(F)cc2)nn1)c1cn2ccccc2n1 [Compound 11b]", "melting point": "205 to 207 °C"}
{"COMPOUND": "O=C(NN=Cc1ccc(Cl)cc1)c1cn2ccccc2n1", "melting point": "226 to 228 °C"}

Can you look up the measured melting point of O=C(NN=Cc1ccc(F)cc1)c1cn2ccccc2n1 for me? 234 to 236 °C

Given the compound Cc1ccc(C=NNC(=O)c2cn3ccccc3n2)cc1 , what is its reported melting point? 180 to 182 °C
